ASSAY_INFO: Plasma concentration versus time of Compound I and metabolite Compound III in patients dosed QD or BID with Form B of Compound II plus fulvestrant
Assay type: in vivo, human
REPORTED_CONDITIONS: human, plasma, oral, 100 mg, 100 mg BID of Form B, Day 1, 0.0 h, Median; read-out: Compound I Concentration
OUTCOME_MEASURE: concentration at 0 h (ng/mL)
Your answer should be a plain number; it is taken to be in ng/mL.

Incoming: # query: concentration at 0 h of entry `CC(C)N1CCN(c2ccc(Nc3ncc4cc5n(c4n3)C3(CCCCC3)CNC5=O)nc2)CC1`
Outgoing: 0

----------
ASSAY_INFO: Noncompartmental pharmacokinetic parameters (Cmax, Tmax, AUC, Racc) in QD and BID cohorts of Form B
Assay type: in vivo, human
REPORTED_CONDITIONS: human, plasma, oral, 300 mg, Compound I; 300 mg QD of Form B; Cohort 2; Day 29; read-out: Cmax (Mean)
OUTCOME_MEASURE: Cmax (ng/mL)
Your answer should be a plain number; it is taken to be in ng/mL.

Incoming: # query: Cmax of entry `CC(C)N1CCN(c2ccc(Nc3ncc4cc5n(c4n3)C3(CCCCC3)CNC5=O)nc2)CC1`
Outgoing: 47

----------
ASSAY_INFO: Plasma concentration versus time of Compound I and metabolite Compound III in patients dosed QD or BID with Form B of Compound II plus fulvestrant
Assay type: in vivo, human
REPORTED_CONDITIONS: human, plasma, oral, 300 mg, 300 mg QD of Form B, Day 1, 8.0 h, Mean; read-out: Compound I Concentration
OUTCOME_MEASURE: concentration at 8 h (ng/mL)
Your answer should be a plain number; it is taken to be in ng/mL.

Incoming: # query: concentration at 8 h of entry CC(C)N1CCN(c2ccc(Nc3ncc4cc5n(c4n3)C3(CCCCC3)CNC5=O)nc2)CC1 [Compound I]
Outgoing: 22.7

----------
ASSAY_INFO: Noncompartmental pharmacokinetic parameters (Cmax, Tmax, AUC, Racc) in QD and BID cohorts of Form B
Type: in vivo, human
REPORTED_CONDITIONS: human, plasma, oral, 650 mg, Cohort 5, 650 mg QD of Form B, Day 1; read-out: Cmax, Mean
OUTCOME_MEASURE: Cmax
// unit must come after the numeric part

Incoming: # query: Cmax of entry CC(C)N1CCN(c2ccc(Nc3ncc4cc5n(c4n3)C3(CCCCC3)CNC5=O)nc2)CC1 [Compound I]
Outgoing: 62.5 ng/mL

----------
ASSAY_INFO: Noncompartmental pharmacokinetic parameters (Cmax, Tmax, AUC, Racc) in QD and BID cohorts of Form B
Assay type: in vivo, human
REPORTED_CONDITIONS: human, plasma, oral, 500 mg, Compound I; 500 mg QD of Form B; Cohort 4; Day 29; read-out: Cmax (Mean)
OUTCOME_MEASURE: Cmax (ng/mL)
Your answer should be a plain number; it is taken to be in ng/mL.

Incoming: # query: Cmax of entry `CC(C)N1CCN(c2ccc(Nc3ncc4cc5n(c4n3)C3(CCCCC3)CNC5=O)nc2)CC1`
Outgoing: 43.2

----------
ASSAY_INFO: Plasma concentration versus time of Compound I and metabolite Compound III in patients dosed QD or BID with Form B of Compound II plus fulvestrant
Type: in vivo, human
REPORTED_CONDITIONS: human, plasma, oral, 650 mg, 650 mg QD of Form B, Day 1, 6.0 h, Mean; read-out: Compound III Concentration
OUTCOME_MEASURE: concentration at 6 h (ng/mL)
Your answer should be a plain number; it is taken to be in ng/mL.

Incoming: # query: concentration at 6 h of entry O=C1NCC2(CCCCC2)n2c1cc1cnc(Nc3ccc(N4CCNCC4)cn3)nc12 [Compound III]
Outgoing: 9.69
